experimentalSystem: Plasma Kallikrein (Homo sapiens (Human), UniProt P03952)
Sequence (P03952 391-638): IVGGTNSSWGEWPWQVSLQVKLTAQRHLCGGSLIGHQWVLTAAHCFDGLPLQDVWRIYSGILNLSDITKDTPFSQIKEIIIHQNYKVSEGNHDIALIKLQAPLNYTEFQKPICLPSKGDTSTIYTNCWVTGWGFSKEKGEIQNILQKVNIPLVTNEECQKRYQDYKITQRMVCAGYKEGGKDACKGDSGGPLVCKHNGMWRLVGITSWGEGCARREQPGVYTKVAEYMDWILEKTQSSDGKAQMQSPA
Sequence (P03952 20-390 partner): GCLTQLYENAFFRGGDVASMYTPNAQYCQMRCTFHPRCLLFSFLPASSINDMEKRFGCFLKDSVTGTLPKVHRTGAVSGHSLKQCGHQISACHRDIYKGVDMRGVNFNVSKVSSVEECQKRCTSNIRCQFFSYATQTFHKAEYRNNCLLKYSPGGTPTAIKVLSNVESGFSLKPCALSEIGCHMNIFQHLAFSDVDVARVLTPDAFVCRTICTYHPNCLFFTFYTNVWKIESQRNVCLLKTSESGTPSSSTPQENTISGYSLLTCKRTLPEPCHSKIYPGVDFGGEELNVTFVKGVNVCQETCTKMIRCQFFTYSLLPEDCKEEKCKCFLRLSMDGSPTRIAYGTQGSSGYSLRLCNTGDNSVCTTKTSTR
protocolSummary: Determination of related protease inhibition: Plasma Kallikrein (fluorogenic substrate at Km)
conditions: 25° C., read-out: IC50 (human PKal)
Exercise: state measured IC50 for each of the compounds provided.

Request: // IC50 lookup, key: Nc1ncc(Cl)c2cc(NCc3ccnc(NCCC(=O)N4CCCC4)c3)ccc12 [Example 4428]
Response: > 4 µM

Request: Now this one: Nc1ncc(Cl)c2cc(NCc3ccc(N4CC5(CC(O)c6nccn65)C4)nc3)ccc12 (stereo not shown) [Example 1270]
Response: > 40 µM

Request: Next up: Nc1nccc2c(NCc3ccc(N4CCn5c(nnc5C(F)(F)F)C4)nc3C(F)(F)F)cccc12 [Example 1298]
Response: > 40 µM

Request: Then this compound: CN1CCC(COc2cc(CNc3ccc4c(N)ncc(Cl)c4c3)ccn2)CC1 [Example 4268]
Response: 10 to 40 µM

====

experimentalSystem: FXa (Homo sapiens (Human))
Sequence (P00742 235-488): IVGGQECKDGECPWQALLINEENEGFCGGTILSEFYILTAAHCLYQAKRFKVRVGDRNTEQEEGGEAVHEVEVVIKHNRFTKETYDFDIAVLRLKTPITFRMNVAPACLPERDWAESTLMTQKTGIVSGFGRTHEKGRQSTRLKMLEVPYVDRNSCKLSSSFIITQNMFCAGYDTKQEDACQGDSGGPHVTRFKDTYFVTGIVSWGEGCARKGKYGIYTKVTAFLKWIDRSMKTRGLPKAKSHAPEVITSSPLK
Sequence (P00742 41-179 partner): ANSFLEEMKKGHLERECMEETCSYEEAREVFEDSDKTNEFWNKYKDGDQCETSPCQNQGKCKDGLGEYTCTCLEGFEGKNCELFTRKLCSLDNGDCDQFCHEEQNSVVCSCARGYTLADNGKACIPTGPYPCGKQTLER
protocolSummary: Determination of related protease inhibition: FXa (fluorogenic substrate at Km)
Type: biochemical
conditions: 25° C.
Excerpt: Determination of Related Protease Inhibition […]
Could you please report measured IC50 for the items listed next?

Request: IC50 for CN1CCC(CNc2ccc(CNc3ccnc4[nH]ccc34)cn2)CC1 ?
Response: > 40 µM

Request: Same read-out for Nc1nccc2c(NCc3ccc(N4CCn5c(nnc5C(F)(F)F)C4)nc3C(F)(F)F)cccc12 ?
Response: > 40 µM

Request: Same question for CN1CCC(COc2cc(CNc3ccc4c(N)nccc4c3)cc(C(F)(F)F)n2)CC1 please.
Response: 1 to 3 µM

Request: And the next one, Nc1nccc2c(NCc3ccc(CCN4CCOCC4)cc3F)cccc12 ?
Response: > 40 µM

Request: Now the same for CN1CCC(COc2ncc(CNc3ccc4c(N)nccc4c3)cn2)CC1
Response: 3 to 10 µM

====

experimentalSystem: Plasma Kallikrein (Homo sapiens (Human))
protocolSummary: Determination of related protease inhibition: Plasma Kallikrein (fluorogenic substrate at Km)
conditions: 25° C., read-out: IC50 (human PKal)
Exercise: for every item that follows, state its recorded IC50.

Request: Field request: IC50 | item: Cc1ncc(NCc2ccc(NCC3CCN(C)CC3)nc2)c2cc[nH]c12
Response: > 100 µM

Request: Okay, and CN1CCC(COc2cc(CNc3cc4ccnc(N)c4cn3)ccn2)CC1 ?
Response: 10 to 40 µM

Request: Continue with CN1CCC(OCc2ccc(CNc3ccc4cc(N)ncc4c3)cc2)CC1
Response: 10 to 40 µM

Request: Also check Nc1ncc(Cl)c2cc(NCc3cnc(OCC4CCn5ccnc5C4)nc3)ccc12 (centres unmarked)
Response: > 40 µM

Request: Quick one: Cc1cc(N2CCn3c(nnc3C(F)(F)F)C2)nc(C)c1CNc1cccc2c(N)nccc12
Response: > 40 µM

Request: Can you handle CN1CCC(CNc2ccc(CNc3ncnc4[nH]ccc34)cn2)CC1 next?
Response: > 100 µM

Request: // same read-out, input: CC(C)N1C[C@H]2C[C@@H]1CN2CCc1ccc(CNc2cccc3c(N)nccc23)c(F)c1 (stereo in doubt)
Response: 10 to 40 µM

Request: And the next one, CC(C)(O)[C@@H]1CCN(c2ccc(CNc3cccc4c(N)nccc34)cn2)C1 ?
Response: > 40 µM
